Biological target: GST-YTHDC1 (345-509) protein (Homo sapiens)
Construct: GST-YTHDC1 (345-509) protein
Assay: Fluorescence polarization-based in vitro enzyme-level test against YTHDC1
Assay type: binding
Conditions: 30 nM GST-YTHDC1 (345-509), FAM-labeled m6A-modified single-stranded oligonucleotide, 18° C., 4 hours; read-out: IC50 (Inhibitory Activity against YTHDC1)
pIC50: −log10 of the molar value.
Label rule, in plain words: pIC50 of 7 and up is y, under 7 is n.

Is pIC50 for CN1C(=O)Cc2cc(-c3ccc(NC(=O)C4=CC(C(=O)c5ccccc5C(F)(F)F)CN4)cc3)ccc21 (stereo not drawn) at or above 7?
y

Is pIC50 for `O=C(Nc1ccc(-c2ccoc2)cc1)c1cc(C(=O)c2ccccc2C(F)(F)F)c[nH]1` at or above 7?
y

Is pIC50 for `CC(C)(C)c1ccccc1C(=O)c1c[nH]c(C(=O)Nc2cccnc2)c1` at or above 7?
n

Is pIC50 for `O=C(Nc1ccc(-c2cnco2)c(F)c1)c1cc(C(=O)c2ccccc2C(F)(F)F)c[nH]1` at or above 7?
y

Is pIC50 for `O=C(Nc1ccc(-c2ccccn2)cc1)c1cc(C(=O)c2ccccc2C(F)(F)F)c[nH]1` at or above 7?
y

Is pIC50 for `CC(C)(C)OC(=O)n1cc(-c2ccc(NC(=O)c3cc(C(=O)c4ccccc4C(F)(F)F)c[nH]3)cc2)c2ccccc21` at or above 7?
n

Is pIC50 for `O=C(Nc1ccc(-c2cnc(N3CCN(CCO)CC3)o2)cc1)c1cc(C(=O)c2ccccc2Br)c[nH]1` at or above 7?
n

Is pIC50 for `O=C(Nc1cccnc1)c1cc(C(=O)c2ccccc2F)c[nH]1` at or above 7?
n

Is pIC50 for `CN(C)c1cc(NC(=O)c2cc(C(=O)c3ccccc3C(F)(F)F)c[nH]2)ccc1-c1cnco1` at or above 7?
y

Is pIC50 for `O=C(Nc1cccnc1)c1cc(C(=O)c2ccccc2Br)c[nH]1` at or above 7?
n
